System: CAKI-1 renal
Experiment: NCI tumour cell line growth inhibition, 48 h
measure-name: TGI

Sample records with TGI:
[[record]]
compound = "COC(=O)N/N=C(/Cc1occc(=O)c1O)C(=O)Nc1ccc([N+](=O)[O-])cc1[N+](=O)[O-]"
measure_name = "TGI"
assay_value = "> 100 µM"

[[record]]
compound = "COc1cc(N2CCC(N3CCN(C)CC3)CC2)ccc1Nc1ncc(Cl)c(Nc2ccccc2S(=O)(=O)C(C)C)n1"
measure_name = "TGI"
assay_value = "6.51 µM"

[[record]]
compound = "O=C(N/N=C(\\c1nc2ccc(Cl)cc2[nH]c1=O)C(O)c1ccccc1Cl)c1ccncc1 (stereo not given)"
measure_name = "TGI"
assay_value = "> 100 µM"

[[record]]
compound = "O=S(=O)(CCCCl)SCCCCl"
measure_name = "TGI"
assay_value = "> 100 µM"

[[record]]
compound = "CC12C(=O)OC(=O)C1(C)C1C=CC2O1 (stereo not given)"
measure_name = "TGI"
assay_value = "> 100 µM"

[[record]]
compound = "Cn1c(=O)c2c(nc3n(C)c(=O)c4ccccc4n23)n(C)c1=O"
measure_name = "TGI"
assay_value = "> 100 µM"


# batch: return TGI for each of the 4 compounds below
1. CC(=O)[O][Bi]([c]1ccccc1)[c]1ccccc1
2. C/C(=C\c1ccn(-c2ccc(N)cc2F)n1)[C@@H]1C[C@@H]2O[C@]2(C)CCC[C@H](C)[C@H](O)[C@@H](C)C(=O)C(C)(C)[C@@H](O)CC(=O)O1
3. CCOC(=O)c1ccc(Nc2nc3cc(C(F)(F)F)ccc3nc2C(=O)OCC)cc1
4. CC#CC(=O)N1CC[C@@H](n2c(=O)n(-c3ccc(Oc4ccccc4)cc3)c3c(N)ncnc32)C1

Solution:
1. 26.2 µM
2. > 50 µM
3. 49.6 µM
4. > 100 µM
